Origin of the recorded values: patent US4191770A

Tested on: secretion in the stomach
Assay: Effect on the secretion in the stomach of narcotized rats (determination of the pH-value)
Format: in vivo
Conditions: Rattus norvegicus, po; dosage 300 mg/kg p.o., narcotized rats, acetylcholine control = 100
Protocol: 3. Effect on the secretion in the stomach of narcotized rats (determinationof the pH-value) The test is performed on narcotized (urethane narcosis) male rats, having a body-weight of 200-230 g. […] The pH value of the perfusate, which leaves the stomach by way of the pylorus catheter, is determined by means of a one-rod measuring system, and is continuously registered. […] For evaluation, the surface-integral is calculated numerically with the aid of the rule of Simpson. […]
Measured inhibition in vivo at 300 mg/kg, listed per entry for reference.
In your response, put the unit directly after the numeric value.

These solved cases illustrate the format of a correct answer.
compound	inhibition in vivo at 300 mg/kg
COc1ccc(C(=O)NCC(O)CN(C)c2ccc(Cl)c(Cl)c2)cc1OC (stereo not shown)	0%
CN(CC(O)CNC(=O)c1ccccn1)c1ccc(Cl)cc1 (stereo not shown)	0%
CN(CC(O)CNC(=O)C=Cc1ccccc1)c1ccc(Cl)cc1 (stereo not shown)	0%
CN(CC(O)CNC(=O)c1ccccc1F)c1ccc(Cl)c(Cl)c1 (stereo not shown)	0%
COc1ccc(C(=O)NCC(O)CN(C)c2ccc(F)cc2)cc1OC (stereo not shown)	0%
CCCCCCCCCCCCCCCC(=O)NCC(O)CN(C)c1ccc(Cl)cc1 (stereo not shown)	0%

Q: Request the reported inhibition in vivo at 300 mg/kg associated with CN(CC(O)CNC(=O)Cc1ccccc1)c1ccc(Cl)cc1 (stereo not shown)
Result: 0%

Q: Proceed to CCCCCC(=O)NCC(O)CN(C)c1ccc(F)cc1 (stereo not shown)
Result: 0%

Q: Follow-up item: CN(CC(O)CNC(=O)c1ccco1)c1ccc(Cl)c(Cl)c1 (stereo not shown)
Result: 0%

Q: Also COCCN(CC(O)CNC(=O)c1ccco1)c1ccc(Cl)cc1 (stereo not shown) ?
Result: 0%

====

assay: in vivo; details: mouse, po, single dose p.o., unfed NMRI mice, 7 days, read-out: Toxicity LD50 p.o.
endpoint_label: LD50 at 168 h

compound	endpoint_value
CN(CC(O)CNC(=O)c1ccco1)c1ccc(Cl)c(Cl)c1 (stereo not shown)	> 1470 mg/kg
CC(=O)NCC(O)CN(C)c1ccc(Cl)cc1 (stereo not shown)	2260 mg/kg
CN(CC(O)CNC(=O)C=Cc1ccccc1)c1ccc(Cl)cc1 (stereo not shown)	> 6810 mg/kg
COCCN(CC(O)CNC(=O)c1ccco1)c1ccc(Cl)cc1 (stereo not shown)	> 1470 mg/kg
CN(CC(O)CNC(=O)c1ccccn1)c1ccc(Cl)cc1 (stereo not shown)	3300 mg/kg
CCCCCCCCCCCCCCCC(=O)NCC(O)CN(C)c1ccc(Cl)cc1 (stereo not shown)	> 6810 mg/kg
COc1ccc(C(=O)NCC(O)CNc2ccccc2Cl)cc1OC (stereo not shown)	> 6700 mg/kg
CC(C)c1ccc(N(C)CC(O)CNC(=O)c2ccco2)cc1 (stereo not shown)	> 1470 mg/kg

Q: For the compound CCCN(CC(O)CNC(=O)C1CCCCC1)c1ccccc1 (stereo not shown) , what LD50 at 168 h is on record?
Result: > 1470 mg/kg

Q: Quick one: CN(CC(O)CNC(=O)C1CC1)c1ccccc1 (stereo not shown)
Result: > 1470 mg/kg

Q: What would you report for CN(CC(O)CNC(=O)Cc1ccccc1)c1ccc(Cl)cc1 (stereo not shown) ?
Result: 3860 mg/kg
